So I've got a bunch of compounds here, and I need their pIC50 values.
molecular target: Mcl-1/Bim interaction (recombinant human Mcl-1 residues 171-327) (Homo sapiens (Human)); assay: Cell Free Mcl-1:Bim Affinity Assay (Mcl-1 HTRF); conditions: TR-FRET, 0.1 nM Mcl-1(171-327), 0.05 nM biotin-Bim(51-76)
Sequence (Q07820 171-327): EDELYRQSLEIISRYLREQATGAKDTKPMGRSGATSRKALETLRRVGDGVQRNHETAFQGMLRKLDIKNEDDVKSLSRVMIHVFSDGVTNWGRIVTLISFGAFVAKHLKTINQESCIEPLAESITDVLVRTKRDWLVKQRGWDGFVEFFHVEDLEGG
FYI, pIC50 means -log10 of a concentration in mol per litre.

Determine from records and report pIC50 for C[C@@H]1[C@@H](C)CCC[C@H](C(=O)N2CCC2)[C@@H]2CC[C@H]2CN2C[C@@]3(CCCc4cc(Cl)ccc43)COc3ccc(cc32)C(=O)NS1(=O)=O (single isomer, unassigned) [Example 9]
9.61

Determine from records and report pIC50 for C[C@@H]1[C@@H](C)C/C=C/[C@H](CO)[C@@H]2CC[C@H]2CN2C[C@@]3(CCCc4cc(Cl)ccc43)COc3ccc(cc32)C(=O)NS1(=O)=O (single isomer, unassigned) [Example 26]
9.47

Determine from records and report pIC50 for CC[C@@H](O)[C@@H]1/C=C/C[C@H](C)[C@@H](C)S(=O)(=O)NC(=O)c2ccc3c(c2)N(C[C@@H]2CC[C@H]21)C[C@@]1(CCCc2cc(Cl)ccc21)CO3 (single isomer, unassigned) [Example 75]
9.09

Determine from records and report pIC50 for C[C@@H]1[C@@H](C)CCC[C@H](CN2CCN3CCN(S(C)(=O)=O)C[C@@H]3C2)[C@@H]2CC[C@H]2CN2C[C@@]3(CCCc4cc(Cl)ccc43)COc3ccc(cc32)C(=O)NS1(=O)=O (stereo in doubt) [Example 20]
8.94

Determine from records and report pIC50 for CC[C@@H](O)[C@H]1/C=C/C[C@H](C)[C@@H](C)S(=O)(=O)NC(=O)c2ccc3c(c2)N(C[C@@H]2CC[C@H]21)C[C@@]1(CCCc2cc(Cl)ccc21)CO3 (single isomer, unassigned) [Example 54]
9.20

Determine from records and report pIC50 for C[C@@H]1[C@@H](C)CCC[C@H](CN2CCOCC2)[C@@H]2CC[C@H]2CN2C[C@@]3(CCCc4cc(Cl)ccc43)COc3ccc(cc32)C(=O)NS1(=O)=O (single isomer, unassigned) [Example 67]
8.98

Determine from records and report pIC50 for C[C@@H]1CS(=O)(=O)NC(=O)c2ccc3c(c2)N(C[C@@H]2CC[C@H]2[C@@H](CO)CC[C@@H]1C)C[C@@]1(CCCc2cc(Cl)ccc21)CO3 (single isomer, unassigned) [Example 84]
8.46

Determine from records and report pIC50 for C[C@@H]1[C@@H](C)CCC[C@H](C)[C@@H]2CC[C@H]2CN2C[C@@]3(CCCc4cc(Cl)ccc43)COc3ccc(cc32)C(=O)NS1(=O)=O (single isomer, unassigned) [Example 73]
8.13

Determine from records and report pIC50 for COCCN1CCN(C[C@H]2CCC[C@H](C)[C@@H](C)S(=O)(=O)NC(=O)c3ccc4c(c3)N(C[C@@H]3CC[C@@H]23)C[C@@]2(CCCc3cc(Cl)ccc32)CO4)CCC1=O (stereo in doubt) [Example 36]
9.58
